Each entry below carries its reported EC50.
Molecular target: T1, human IL6R expressed on cell surface (human, UniProt P08887 20-468)
T1 construct: whole, on cells; also called cell surface human IL6R; U266 cells expressing human IL6R
T1 sequence (looked up): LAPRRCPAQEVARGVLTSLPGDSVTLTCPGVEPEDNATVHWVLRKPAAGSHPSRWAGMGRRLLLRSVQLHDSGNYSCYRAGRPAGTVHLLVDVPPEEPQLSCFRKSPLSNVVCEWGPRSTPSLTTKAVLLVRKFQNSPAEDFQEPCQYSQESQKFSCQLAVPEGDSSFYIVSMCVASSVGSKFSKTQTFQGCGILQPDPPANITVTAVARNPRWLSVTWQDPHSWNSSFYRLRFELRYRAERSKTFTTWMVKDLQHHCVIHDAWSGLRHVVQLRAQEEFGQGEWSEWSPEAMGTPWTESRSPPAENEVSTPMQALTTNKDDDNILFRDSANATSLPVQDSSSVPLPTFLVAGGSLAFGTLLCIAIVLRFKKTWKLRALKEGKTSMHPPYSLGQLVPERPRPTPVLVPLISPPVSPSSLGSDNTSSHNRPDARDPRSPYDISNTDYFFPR
Experiment: cell-based binding FACS on U266 cells
experimental readout: EC50 (pM)

binder	test result
Chimeric 1H7 (antibody, human IgG1, kappa, V domains shown, Mouse variable regions on human IgG1 / human kappa constant regions; also called chimeric antibody 1H7) VH: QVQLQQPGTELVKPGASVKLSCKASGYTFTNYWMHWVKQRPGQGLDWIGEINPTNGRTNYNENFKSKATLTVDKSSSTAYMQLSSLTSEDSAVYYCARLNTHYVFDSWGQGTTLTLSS VL: EIVLTQSPTTLAASPGEKITFTCSVSSSISSNYLHWYQQKPGFSPKLLISRTSTLASGVPARFSGSGSGTSYSLTIGTMEAEDVATYYCQQGSGIPFTFGSGTKLELKR	298
Tocilizumab (antibody, human IgG1, kappa, V domains shown, In house made; also called benchmark; Actemra) VH: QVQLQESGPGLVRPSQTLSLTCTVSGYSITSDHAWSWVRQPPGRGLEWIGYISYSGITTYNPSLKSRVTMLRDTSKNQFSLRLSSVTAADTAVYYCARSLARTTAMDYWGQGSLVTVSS VL: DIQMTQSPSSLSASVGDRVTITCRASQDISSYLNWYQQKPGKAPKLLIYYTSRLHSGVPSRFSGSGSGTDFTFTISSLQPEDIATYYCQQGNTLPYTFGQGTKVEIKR	1760
humanized antibody hu1H7-V5 (antibody, human IgG1, kappa, V domains shown, Human IgG1 / kappa) VH: QVQLVQSGAEVKKPGASVKVSCKASGYTFTNYWMHWVRQAPGQGLEWIGEINPTNGRTNYNENFKSRVTLTVDTSTSTVYMELSSLRSEDTAVYYCARLNTHYVFDSWGQGTLVTVSS VL: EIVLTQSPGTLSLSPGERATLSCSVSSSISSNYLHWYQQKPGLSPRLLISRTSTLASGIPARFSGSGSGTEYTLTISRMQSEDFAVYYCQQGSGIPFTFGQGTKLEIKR	417
mouse anti-IL6R monoclonal antibody 1H7 (antibody, V domains shown, Mouse hybridoma mAb) VH: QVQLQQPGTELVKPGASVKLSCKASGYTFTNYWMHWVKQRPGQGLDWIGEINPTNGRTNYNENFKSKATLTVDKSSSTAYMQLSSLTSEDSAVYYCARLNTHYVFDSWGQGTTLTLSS VL: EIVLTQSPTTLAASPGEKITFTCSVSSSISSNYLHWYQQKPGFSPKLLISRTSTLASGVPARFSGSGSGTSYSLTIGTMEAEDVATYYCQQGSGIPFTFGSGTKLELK	301
